TARGET_OF_ASSAY: purified recombinant IDO1 (Homo sapiens)
Construct: Full-length human IDO1 gene was cloned into the pET-28a vector; inferred from pET-28a vector and HisTrap purification; made in house; host or cells: E. coli Rosetta (DE3)
Sequence (P14902 whole entry): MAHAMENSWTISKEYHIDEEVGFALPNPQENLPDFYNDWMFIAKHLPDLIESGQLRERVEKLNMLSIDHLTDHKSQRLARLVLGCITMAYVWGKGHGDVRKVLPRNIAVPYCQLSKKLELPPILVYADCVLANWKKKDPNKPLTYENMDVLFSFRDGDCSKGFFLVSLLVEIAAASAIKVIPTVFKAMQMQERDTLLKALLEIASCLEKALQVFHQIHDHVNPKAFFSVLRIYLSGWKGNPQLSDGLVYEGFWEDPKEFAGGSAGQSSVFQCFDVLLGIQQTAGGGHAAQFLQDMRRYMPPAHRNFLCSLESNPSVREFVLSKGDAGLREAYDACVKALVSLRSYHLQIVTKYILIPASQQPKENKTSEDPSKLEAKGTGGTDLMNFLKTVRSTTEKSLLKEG
METHOD_NOTES: Enzymatic IDO1 inhibition assay (ascorbate/methylene blue reduction system, HPLC detection of kynurenine)
Type: biochemical
MEASUREMENT_SETUP: ligand efficiency, LE = -RT log(IC50)/number of heavy atoms, from enzymatic IC50
# if value of LE [kcal/mol/HA] reaches 0.4 kcal/mol/HA, tag true; if it stays below, tag false

Sample answers from the record:
Challenge: Please check the record O=C(c1ccc(Cl)cc1)c1cnn[nH]1 and state if its LE [kcal/mol/HA] is at or above 0.4 kcal/mol/HA.
Response given: true

Challenge: Please check the record O=C(c1cnn[nH]1)c1cc(Cl)ccc1O and state if its LE [kcal/mol/HA] is at or above 0.4 kcal/mol/HA.
Response given: false

Challenge: Please check the record Clc1cc(Cl)cc(-c2c[nH]nn2)c1 and state if its LE [kcal/mol/HA] is at or above 0.4 kcal/mol/HA.
Response given: true

Challenge: Please check the record Clc1ccc(Nc2cnn[nH]2)cc1 [Compound 10, reference compound] and state if its LE [kcal/mol/HA] is at or above 0.4 kcal/mol/HA.
Response given: true

Challenge: Please check the record O=C(c1cnn[nH]1)c1ccc(Cl)cc1O and state if its LE [kcal/mol/HA] is at or above 0.4 kcal/mol/HA.
Response given: true

Challenge: Please check the record Cc1cccc(-c2cnn[nH]2)c1 and state if its LE [kcal/mol/HA] is at or above 0.4 kcal/mol/HA.
Response given: true

Others:
Challenge: Please check the record Nc1c(F)cccc1-c1nc[nH]n1 and state if its LE [kcal/mol/HA] is at or above 0.4 kcal/mol/HA.
Response given: true

Challenge: Please check the record O=C(c1cnn[nH]1)c1ccccc1O and state if its LE [kcal/mol/HA] is at or above 0.4 kcal/mol/HA.
Response given: false

Challenge: Please check the record COc1ccc(C(=O)c2cnn[nH]2)cc1 and state if its LE [kcal/mol/HA] is at or above 0.4 kcal/mol/HA.
Response given: false

Challenge: Please check the record O=C(c1ccc(Br)cc1)c1cnn[nH]1 and state if its LE [kcal/mol/HA] is at or above 0.4 kcal/mol/HA.
Response given: true

Challenge: Please check the record Clc1cccc(-c2nnc[nH]2)c1 and state if its LE [kcal/mol/HA] is at or above 0.4 kcal/mol/HA.
Response given: true

Challenge: Please check the record O=C(c1cscn1)c1cnn[nH]1 and state if its LE [kcal/mol/HA] is at or above 0.4 kcal/mol/HA.
Response given: true

Challenge: Please check the record Oc1ccccc1-c1nnc[nH]1 and state if its LE [kcal/mol/HA] is at or above 0.4 kcal/mol/HA.
Response given: true

Challenge: Please check the record Clc1cccc(-c2cnn[nH]2)c1CCC1CCCC1 and state if its LE [kcal/mol/HA] is at or above 0.4 kcal/mol/HA.
Response given: false

====

MEASURE_NAME: melting point

Observe how each entry below is paired with its result.
# molecule CCC(=O)Nc1ccc(Cl)cc1-c1nc[nH]n1 ; its melting point = 168 to 171 °C

# molecule O=C(c1ccccn1)c1cnn[nH]1 ; its melting point = 161 to 163 °C

# molecule Oc1ccc(F)cc1-c1cnn[nH]1 ; its melting point = 186 to 188 °C

# molecule Nc1ccc(Cl)c(N)c1-c1nc[nH]n1 ; its melting point = 212 to 214 °C

# molecule Cc1ccc(O)c(-c2cnn[nH]2)c1 ; its melting point = 160 to 162 °C

// each molecule listed below needs its melting point
1. Cc1[nH]nnc1-c1cc(Cl)ccc1O
2. O=C(c1cnn[nH]1)c1ccc(Br)cc1O
3. Oc1cccc(O)c1-c1cnn[nH]1
4. c1ccc(CCOc2ccccc2-c2c[nH]nn2)cc1
5. O=C(c1cnn[nH]1)c1cc(Cl)ccc1O

Response given:
149 to 151 °C
192 to 194 °C
257 to 259 °C
91 to 93 °C
186 to 188 °C

Numbers sourced from paper PMC9246256.
